Provenance of the data: ChEMBL document CHEMBL1201862

System: MOLT-4
Experiment: NCI tumour cell line growth inhibition, 48 h
Calls of active or inactive are those of the source. No stated cut-off is given here; in the data, active = GI50 up to about 1.1 µM and inactive = higher.
Thanks in advance; please answer with one of these: YES for active, NO for inactive

Record excerpt, results attached:
[
  {
    "compound": "c1ccc2sc(SSSc3nc4ccccc4s3)nc2c1",
    "assignedClass": "NO"
  },
  {
    "compound": "O=C1C2C(C(=O)N1OS(=O)(=O)c1ccccc1)N(Cc1ccccc1)C(=O)N2Cc1ccccc1 (stereo not drawn)",
    "assignedClass": "NO"
  },
  {
    "compound": "Cc1ccc(O)c(Cc2nc3ccccc3nc2-c2cccc(Cl)c2)c1",
    "assignedClass": "NO"
  },
  {
    "compound": "COc1cc(O)c2c(c1)O[C@@H]1OCC[C@H]21",
    "assignedClass": "NO"
  },
  {
    "compound": "O=C1/C(=C/c2ccc(Cl)cc2)NC(=S)N1CN1CCCCC1",
    "assignedClass": "NO"
  }
]

I would be grateful if you could indicate the recorded call for CC(=O)Oc1ccn2nc(C)c(Br)c2c1 . NO

I would be grateful if you could indicate the recorded call for O=C1N2CCN=C2c2ccccc2C1(O)c1ccccc1 (stereo not drawn) . NO

I would be grateful if you could indicate the recorded call for Cn1nc(Cc2ccc(Cl)cc2)n(N)c1=O . NO

---

Entries and their GI50
Tested on: SNB-78
Assay: NCI tumour cell line growth inhibition, 48 h
Active and inactive are the calls of the source. Cut-off read from the data, not from the text of the source: active = GI50 up to about 1.1 µM and inactive = higher.

[
  {
    "compound": "COC1=CC(C)C2C[C@H]3O[C@H](O)C[C@H]4C(C)C(=O)C(O)C([C@@]2(C)C1=O)[C@@]34C (stereo partly drawn)",
    "measuredTarget": "SNB-78",
    "GI50": "> 100 µM (inactive)"
  },
  {
    "compound": "O=C(c1cc(O)ccc1O)c1ccccc1C(Cl)(Cl)Cl",
    "measuredTarget": "SNB-78",
    "GI50": "> 100 µM (inactive)"
  },
  {
    "compound": "Cc1ccc(NC(=O)CC2Sc3ccccc3NC2=O)c(C)c1 (stereo not drawn)",
    "measuredTarget": "SNB-78",
    "GI50": "24.7 µM (inactive)"
  }
]

# query: GI50 | item C/C(CC(=O)Nc1ccc(Cl)c(Cl)c1)=N/NC(=O)C[n+]1ccccc1 | system: SNB-78 > 100 µM (inactive)

# query: GI50 | item CCC1CN2CCC1CC2 (stereo not drawn) | system: SNB-78 > 100 µM (inactive)

# query: GI50 | item CCc1ccccc1NC(=O)/C(CC(=O)c1c(C)[n+]([O-])c2ccccc2[n+]1[O-])=N\NS(=O)(=O)c1ccc(C)cc1 | system: SNB-78 33.7 µM (inactive)

# query: GI50 | item CC(=O)/C(C)=N/NC(=O)c1ccccc1O | system: SNB-78 > 10 µM (inactive)

# query: GI50 | item Cc1ccc(NC(=O)CCc2nnc3s/c(=C\c4cccc([N+](=O)[O-])c4)c(=O)n23)cc1 | system: SNB-78 > 100 µM (inactive)

# query: GI50 | item COC(=O)C(CC=O)C(=O)C(=O)Nc1cccc(C(F)(F)F)c1 (stereo not drawn) | system: SNB-78 > 100 µM (inactive)

---

Test system: HT-29
Experiment: NCI tumour cell line growth inhibition, 48 h
Active and inactive are the calls of the source. Cut-off read from the data, not from the text of the source: active = GI50 up to about 1.1 µM and inactive = higher.
Thanks in advance; please answer with one of these: yes (1) for active, no (0) for inactive

Record excerpt, results attached:
[
  {
    "compound": "O=C(c1ccccc1)c1ccc2nc3n(c2c1)C(c1c(F)cccc1F)SC3 (configuration not stated)",
    "measuredTarget": "HT-29",
    "assignedClass": "no (0)"
  },
  {
    "compound": "CN1[C@@H]2CCCC[C@H]2N(C)P1(=O)C(O)/C=C/c1ccccc1 (some centres not stated)",
    "measuredTarget": "HT-29",
    "assignedClass": "no (0)"
  },
  {
    "compound": "C[C@]12CC[C@H](O)CC1=CC[C@@H]1[C@@H]2CC[C@]2(C)/C(=N/OCCN3CCCC3)CC[C@@H]12",
    "measuredTarget": "HT-29",
    "assignedClass": "no (0)"
  }
]

I would be grateful if you could indicate the recorded call for COc1cc(/C=C(\C#N)C(=O)c2ccccc2)cc(OC)c1OC . no (0)

I would be grateful if you could indicate the recorded call for O=C1C2Nc3ccccc3SC2C(=O)N1c1ccc(Br)cc1 (configuration not stated) . no (0)

I would be grateful if you could indicate the recorded call for CCN(CC)CCCNc1ccc([N+](=O)[O-])c2nc3ccccc3c(N)c12 . yes (1)

I would be grateful if you could indicate the recorded call for C[C@H]1[C@@H]2C[C@@H]3O[C@@]34[C@H]3CCC5Cc6nc7c(nc6C[C@@]5(C)[C@]3(O)CC(=O)[C@@]24CO[C@]12OC(C)(C)C[C@@H]2O)CC1CC[C@@H]2C3=C[C@H]4O[C@@]5(OC(C)(CO)C[C@@H]5O)[C@H](C)[C@@]4(O)[C@]3(C)[C@@H](O)CC2[C@]1(C)C7 (some centres not stated) . yes (1)

---

Tested on: NCI-H460
Experiment: NCI tumour cell line growth inhibition, 48 h
Calls of active or inactive are those of the source. No stated cut-off is given here; in the data, active = GI50 up to about 1.1 µM and inactive = higher.
propertyMeasured: GI50

// returns reported GI50 for input COC1(c2cccs2)c2ccccc2C(OC)(c2cccs2)c2ccccc21 (centres undefined) > 100 µM (inactive)

// returns reported GI50 for input CCCCC/C(=N\c1[nH]cnc1C(N)=O)OCC > 100 µM (inactive)

// returns reported GI50 for input C/C(CC(=O)Nc1ccc(Cl)c(Cl)c1)=N/NC(=O)C[n+]1ccccc1 77.4 µM (inactive)

// returns reported GI50 for input CN1CCN(c2ccc3nc(C4=C(O)C(=O)c5c(nc(CCl)n5C)C4=O)[nH]c3n2)CC1 20.2 µM (inactive)

// returns reported GI50 for input Cc1ccc(N2C(=O)CC(=O)N(NC(=O)C(C)Oc3ccccc3C)C2=S)cc1 (centres undefined) > 100 µM (inactive)

// returns reported GI50 for input Cc1ccc(S(=O)(=O)Nc2ccccc2C(=O)c2ccc(C)c(C)c2)cc1 80.2 µM (inactive)

// returns reported GI50 for input CC1(C)CC(=O)c2c(nc3ccc4ccccc4c3c2-c2ccc(NC(=O)CCC(=O)Nc3ccc(-c4c5c(nc6ccc7ccccc7c46)CC(C)(C)CC5=O)cc3)cc2)C1 > 100 µM (inactive)

// returns reported GI50 for input CC(=O)Nc1ccc(C(=O)NN2C(=O)CSC2c2ccc([N+](=O)[O-])cc2)cc1 (centres undefined) > 100 µM (inactive)

// returns reported GI50 for input Nc1n[n+]([O-])c2cc([N+](=O)[O-])ccc2[n+]1[O-] 3.31 µM (inactive)

---

System: HOP-62
Assay: NCI tumour cell line growth inhibition, 48 h
Calls of active or inactive are those of the source. No stated cut-off is given here; in the data, active = GI50 up to about 1.1 µM and inactive = higher.
Thanks in advance; please answer with one of these: 1 (active), 0 (inactive)

[
  {
    "compound": "O=C(c1cc(O)ccc1O)c1ccccc1C(Cl)(Cl)Cl",
    "assignedClass": 0
  },
  {
    "compound": "C[C@@H](CC(=O)OCc1ccccc1)OC1OC(COC(=O)C(C)(C)C)C(OC(=O)C(C)(C)C)C(OC(=O)C(C)(C)C)C1OC(=O)C(C)(C)C (stereo not given in full)",
    "assignedClass": 0
  },
  {
    "compound": "NC(CCSCC(F)F)C(=O)O (stereo not given)",
    "assignedClass": 0
  },
  {
    "compound": "COc1ccc(C=O)cc1Oc1ccc(C[C@H]2c3c(cc(OC)c4c3Oc3cc5c(cc3O4)CCN(C)C5=O)CCN2C)cc1",
    "assignedClass": 0
  },
  {
    "compound": "O=[N+]([O-])c1cccc2nc3ccccc3c(NCCC[N+]3([O-])CCCCC3)c12",
    "assignedClass": 1
  },
  {
    "compound": "COC(=O)CN(CC(O)C(NC(C)=O)C(O)C=O)C(=O)OCc1ccccc1 (stereo not given)",
    "assignedClass": 0
  }
]

I would be grateful if you could indicate the recorded call for NC(=S)NNc1c([N+](=O)[O-])cnn(-c2ccccc2)c1=O . 0

I would be grateful if you could indicate the recorded call for C=CCCCC1(C)CCNC1=S (stereo not given) . 0

I would be grateful if you could indicate the recorded call for COc1ccc(-c2cc(C(O)C3CCCCN3)c3ccccc3n2)cc1 (stereo not given) . 0

I would be grateful if you could indicate the recorded call for COc1cc(/C=C2/CCS(=O)(=O)c3ccc(C)cc3C2=O)cc(OC)c1OC . 0

I would be grateful if you could indicate the recorded call for O=C1NC(Cc2ccccc2)C(=O)N2CCCC12 (stereo not given) . 0

I would be grateful if you could indicate the recorded call for COc1c(Cl)cc(S(=O)O)cc1Cl . 0
